Every entry's value here was drawn from PubChem BioAssay (EPA / NIEHS).

# Read-out: E-selectin (Homo sapiens) (UniProt P16581)
# Sequence (P16581 whole entry, looked up): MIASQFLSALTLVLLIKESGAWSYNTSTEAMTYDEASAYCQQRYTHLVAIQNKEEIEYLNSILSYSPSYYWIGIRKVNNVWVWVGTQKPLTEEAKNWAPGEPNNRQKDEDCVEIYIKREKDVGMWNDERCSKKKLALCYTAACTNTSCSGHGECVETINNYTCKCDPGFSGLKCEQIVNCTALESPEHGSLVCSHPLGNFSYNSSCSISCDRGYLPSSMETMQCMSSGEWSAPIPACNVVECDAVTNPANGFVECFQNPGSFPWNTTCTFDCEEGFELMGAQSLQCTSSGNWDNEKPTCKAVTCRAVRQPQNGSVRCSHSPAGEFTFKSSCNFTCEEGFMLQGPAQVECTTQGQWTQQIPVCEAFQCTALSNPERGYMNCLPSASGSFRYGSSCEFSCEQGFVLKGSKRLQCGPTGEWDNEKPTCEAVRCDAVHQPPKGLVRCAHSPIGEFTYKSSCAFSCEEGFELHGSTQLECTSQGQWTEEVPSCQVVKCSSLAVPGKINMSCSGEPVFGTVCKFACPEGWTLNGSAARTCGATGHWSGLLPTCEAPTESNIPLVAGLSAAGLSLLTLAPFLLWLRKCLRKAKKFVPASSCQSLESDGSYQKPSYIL
# test protocol: BSK_3C_Eselectin: BioMAP Diversity Plus: 3C Assay for Eselectin Biomarker Activity (AID 2283015)
# study conditions: primary human endothelial cells (HUVEC); actives raise or lower the signal
Calls of active or inactive are those of the source. Rule for the calls: active = hit-call score of the fitted dose curve at least 0.9, where 1 is the maximum; inactive = score below 0.9.
Form entry, call: pick from T = active, F = inactive

# count of solved cases: 2
CN1CCN(c2ccccc2/C=C2\SCCN(c3ccc(Cl)c(Cl)c3)C2=O)CC1
F
CCCCCCC(=O)O
F

Entry `O=c1c(-c2ccc(O)cc2)coc2cc(O)ccc12` : call = ?
F

Entry `CC[C@H](c1ccc(O)cc1)[C@@H](CC)c1ccc(O)cc1` : call = ?
T

Entry `CC(C)(C)c1cccc(C(C)(C)C)c1O` : call = ?
F

Entry `NC(=O)N(O)[C@@H]1C=C[C@H](Oc2cccc(Oc3ccc(F)cc3)c2)C1` : call = ?
F

Entry `CCCCCCCC(=O)O` : call = ?
F

Entry `O=C(OCCOCCOC(=O)c1ccccc1)c1ccccc1` : call = ?
F

Entry `c1ccc2c(c1)Cc1ccccc1-2` : call = ?
F

Entry `CC(C)(C)c1ccc(O)c(C(C)(C)C)c1` : call = ?
T

Entry `COc1ccc([N+](=O)[O-])cc1N` : call = ?
F
